study_target: T1, human six-transmembrane epithelial antigen of prostate 2 (STEAP2) (human, UniProt Q8NFT2 1-490)
T1 construct: also called hSTEAP2
T1 sequence: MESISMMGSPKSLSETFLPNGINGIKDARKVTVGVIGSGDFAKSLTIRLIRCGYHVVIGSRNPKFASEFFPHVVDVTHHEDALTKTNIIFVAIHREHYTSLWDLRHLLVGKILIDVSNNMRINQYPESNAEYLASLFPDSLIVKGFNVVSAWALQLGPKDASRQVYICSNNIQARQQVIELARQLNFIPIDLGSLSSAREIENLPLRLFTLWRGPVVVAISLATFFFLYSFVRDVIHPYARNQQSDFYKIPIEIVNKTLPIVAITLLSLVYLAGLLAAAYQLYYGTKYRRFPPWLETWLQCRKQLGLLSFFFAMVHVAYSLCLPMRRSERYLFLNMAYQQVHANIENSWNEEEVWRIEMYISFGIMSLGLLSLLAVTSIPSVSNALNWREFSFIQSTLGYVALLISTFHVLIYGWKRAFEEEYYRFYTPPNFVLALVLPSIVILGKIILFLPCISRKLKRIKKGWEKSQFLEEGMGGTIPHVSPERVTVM
assay_remarks: FACS titration on C4-2 cells (endogenous STEAP2), 4-parameter fit
measure: EC50 (nM)
Field format: number, assumed nM, no unit text.

As a guide, the following entries are already answered.
INSERT INTO results (binder, measure, recorded_measurement) VALUES
  ('H1H11164N (antibody, human IgG1, V domains shown) VH: QVQLQQSGPGLVKPSQTLSLTCVISGDSVSTNSAAWNWIRQSPSRGLEWLGRTYYRSKWYNDYAVSVRSRITINPVTSKNQVALHLNSVTPEDTAVYYCARAGIVVVPGPETYYYYYHGLDVWGQGTTVTVSS VL: DIQMTQSPSSLSASVGDRVTITCRASQNIRSYLNWYQQKPGKAPKLLIHVASSLQSGVPSRFSGSGSGTDFTLTISSLQPEDFATYYCQQSYSTPPITFGHGTRLEIK', 'EC50', 2),
  ('H1H7814N (antibody, human IgG1, V domains shown) VH: QVQLVESGGGVVQPGRSLRLSCVASGFTISSYGMNWVRQAPGKGLEWVAVISYDGGNKYSVDSVKGRFTISRDNSKNTLYLQMNSLRAEDSAVYYCARGRYFDLWGRGTLVTVSS VL: DIQMTQSPSTLSASVGDRVTITCRASQSISSWLAWYQQKPGRAPNLLISKASSLKSGVPSRFSGSGSGTEFTLTVSSLQPDDFATYYCQQYYSYSYTFGQGTKLEIK', 'EC50', 4),
  ('H1H11162N (antibody, human IgG1, V domains shown) VH: QVQLQQSGPGLVKPSQTLSLTCAISGDSVSSNRAAWNWIRQSPSRGLQWLGRTYYRSKWYNDYAVSLRSRITINPVTSKNQVALHMNSVTPEDTAVYYCARAGIVVVPGPETFYYYDHGLDVWGQGTTVTVSS VL: DIQMTQSPSSLSASVGDRVTITCRASQSIRSYLNWYQQKPGKAPELLIHAASSLQSGVPSRFSGSGSGTDFTLTISSLQPEDFASYYCQQSYSAPPITFGQGTRLEIK', 'EC50', 1),
  ('H1H7972P (antibody, human IgG1, V domains shown) VH: QVQLQQSGPGLVKPSQTLSLTCAISGDSVSSNSAAWNWIRQSPSRGLEWLGRTYYRSKWYNDYVVSVKSRIIFNPDTSKNQFSLQLNSVTPEDTAVYYCARVRQDYRSGPFDYWGQGTLVTVSS VL: EIVMTQSPVTLSVSPGERATLSCWASQSVSSSLAWYQQKPGQAPRLLIYGASTRATGIPARFSGSGSGTGFTLTISSLQSEDFAVYYCQQYNNWPFTFGPGTKVDIK', 'EC50', 9);

Switching to the query record.
Ask | Output EC50 of H1H11880P (antibody, human IgG1, V domains shown) VH: EVQLVESGGGLVQPGGSLRLSCAASGFTFSTYAMHWVRQAPGKGLQHVSTISTNGVNTYYADSVKGRFTISRDNSKSTLYLQMGSLRAEDMAVYYCARDKDFWSGYFDYWGQGTLVTVSS VL: EIVMTQSPGTLSVSPGERATLSCRASQSVSSNLAWYHQKPGQAPRLLIYGASTRATGFPARFSGSGSGTEFTLTISSLQSEDFAAYYCQQYNNWPITFGQGTRLEIK
Reply | 5
